target: His-Tau40P301L Tau (UniProt P10636-8 1-441); assay: cell-based or functional assay
Sequence (P10636 other isoform, or with tags, fused parts or gaps limits assumed): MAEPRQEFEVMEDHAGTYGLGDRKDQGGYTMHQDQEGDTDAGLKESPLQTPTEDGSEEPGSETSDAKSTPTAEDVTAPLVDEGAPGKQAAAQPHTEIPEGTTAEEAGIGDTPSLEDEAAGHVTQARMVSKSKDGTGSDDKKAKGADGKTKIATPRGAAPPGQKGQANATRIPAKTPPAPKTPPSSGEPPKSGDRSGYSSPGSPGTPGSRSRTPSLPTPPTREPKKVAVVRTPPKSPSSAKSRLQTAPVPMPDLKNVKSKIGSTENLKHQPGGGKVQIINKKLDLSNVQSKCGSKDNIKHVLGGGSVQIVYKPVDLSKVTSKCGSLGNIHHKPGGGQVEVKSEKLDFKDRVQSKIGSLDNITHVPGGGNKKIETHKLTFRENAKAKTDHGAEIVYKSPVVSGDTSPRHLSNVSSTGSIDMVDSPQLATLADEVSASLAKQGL
assay metric: IC50 (µM), Tau40 assay (ThT)
Give bare numbers, in µM.

| binder | measurement units | meas value |
| --- | --- | --- |
| WRIRLWYR | µM | 1.31 |
| WRIRLYWR | µM | 3.1 |
| WRIWLRYW | µM | 2.05 |
| IRLWIW | µM | 9.6 |
| RIRIWRW | µM | 2.39 |
| IRLWVW | µM | 8.77 |
| RRIRIRW | µM | 2.88 |

So for `RIRIAIW` , the logged IC50 (µM), Tau40 assay (ThT) turned out to be 4.14
